Source of measurements: patent US20220306622A1

Experiment: Pharmacokinetic evaluation in plasma of mice (IV and PO)
Format: in vivo, BALB/C female mice
Conditions: female, BALB/C, plasma, 10 mg/kg; mouse, oral administration
Procedure: The tested compound was mixed with 5% DMSO/95% 10% polyoxyethylene castor oil (Cremophor EL) followed by vortex and ultrasonic treatment to prepare 1 mg/mL approximate clear solution, which was filtered by microporous membrane before used. […] The medicament was analyzed for its concentration by LC-MS/MS, and the pharmacokinetic parameters were calculated by Phoenix winnonlin software (pharsight company).
PROPERTY_NAME: bioavailability

Task: Find the recorded bioavailability belonging to C[C@H]1COCCN1c1nc(N2CCOC3(CC3)C2)nc2nc(-c3cccc(C(N)=O)c3)ccc12 [Compound of formula (I)] and report it.
Result: ~100%
